- EXPERIMENTAL_SYSTEM: CFTR G551D mutant (Homo sapiens, UniProt P13569, G551D)
- Construct: expressed in transfected cells; host or cells: HEK293 cells, reverse transfection with plasmids
- Sequence (P13569 whole entry G551D): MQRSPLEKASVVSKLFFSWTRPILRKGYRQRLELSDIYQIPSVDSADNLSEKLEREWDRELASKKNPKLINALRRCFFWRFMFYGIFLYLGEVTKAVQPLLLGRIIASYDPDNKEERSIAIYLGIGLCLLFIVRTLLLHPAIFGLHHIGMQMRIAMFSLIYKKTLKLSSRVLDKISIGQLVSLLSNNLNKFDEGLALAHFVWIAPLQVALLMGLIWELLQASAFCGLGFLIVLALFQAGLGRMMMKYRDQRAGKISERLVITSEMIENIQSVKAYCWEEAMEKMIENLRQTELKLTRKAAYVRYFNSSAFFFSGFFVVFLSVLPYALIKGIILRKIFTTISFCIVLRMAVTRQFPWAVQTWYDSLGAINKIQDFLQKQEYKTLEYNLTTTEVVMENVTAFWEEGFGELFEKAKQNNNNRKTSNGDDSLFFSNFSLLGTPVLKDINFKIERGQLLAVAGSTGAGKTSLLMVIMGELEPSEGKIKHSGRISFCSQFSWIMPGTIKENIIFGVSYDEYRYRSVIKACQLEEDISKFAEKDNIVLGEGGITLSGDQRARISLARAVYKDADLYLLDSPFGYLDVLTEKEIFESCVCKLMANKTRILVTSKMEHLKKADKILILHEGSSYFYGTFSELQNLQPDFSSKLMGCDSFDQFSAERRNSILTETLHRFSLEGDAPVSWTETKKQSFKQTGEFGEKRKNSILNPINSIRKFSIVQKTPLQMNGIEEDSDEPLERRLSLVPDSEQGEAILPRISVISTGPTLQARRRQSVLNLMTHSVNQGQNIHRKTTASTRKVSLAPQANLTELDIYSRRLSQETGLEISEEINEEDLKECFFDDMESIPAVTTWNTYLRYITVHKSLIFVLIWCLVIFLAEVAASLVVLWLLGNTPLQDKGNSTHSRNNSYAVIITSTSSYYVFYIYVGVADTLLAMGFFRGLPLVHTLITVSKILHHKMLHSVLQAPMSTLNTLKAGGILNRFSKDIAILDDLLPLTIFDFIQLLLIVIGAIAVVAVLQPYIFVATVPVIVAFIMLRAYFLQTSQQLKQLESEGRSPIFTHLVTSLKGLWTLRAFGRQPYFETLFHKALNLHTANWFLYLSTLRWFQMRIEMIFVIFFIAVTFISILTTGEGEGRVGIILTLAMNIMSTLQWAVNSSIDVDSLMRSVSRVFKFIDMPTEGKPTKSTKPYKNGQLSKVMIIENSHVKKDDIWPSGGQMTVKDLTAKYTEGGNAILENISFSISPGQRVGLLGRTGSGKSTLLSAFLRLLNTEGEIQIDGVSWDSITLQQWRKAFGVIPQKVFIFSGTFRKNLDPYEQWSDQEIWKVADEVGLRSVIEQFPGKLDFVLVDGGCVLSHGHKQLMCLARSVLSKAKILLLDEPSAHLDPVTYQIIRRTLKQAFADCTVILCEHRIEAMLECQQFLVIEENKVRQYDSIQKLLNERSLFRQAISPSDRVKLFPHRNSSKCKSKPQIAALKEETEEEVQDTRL
- PROTOCOL_NOTES: YFP-halide influx assay for the CFTR-G551D mutation (HEK293 cells)
- Type: cell-based
- PARTICULARS: forskolin 10.67 μM
ASSAY_ENDPOINT: % Activation (%)

[
  {
    "MOLECULE": "COCC(O)CNC(=O)c1ncc(S(=O)(=O)c2ccc(OC(F)(F)F)cc2F)cc1N (stereo not shown)",
    "% Activation [%]": 70.2
  },
  {
    "MOLECULE": "Nc1cc(S(=O)(=O)c2ccc(C(F)(F)F)cc2F)cnc1C(=O)N1CC(C(F)(F)F)C1",
    "% Activation [%]": 52.7
  },
  {
    "MOLECULE": "COC[C@H](O)CNC(=O)c1ncc(S(=O)(=O)c2ccc(C(F)(F)F)cc2)cc1N",
    "% Activation [%]": 75.3
  },
  {
    "MOLECULE": "C[C@H]1CCCN1S(=O)(=O)c1cnc(C(=O)NCC(O)C(F)(F)F)c(N)c1 (stereo partly shown)",
    "% Activation [%]": 61.4
  }
]
